Examples of compounds with documented CC50 follow.
- Tested on: BRCA-1 silenced HeLa cells (HeLa shBRCA1-GFP)
- test: Proliferation assay in BRCA-1 silenced HeLa cells
- Format: cell-based
- conditionParameters: Homo sapiens; BRCA1 silenced HeLa cells, 168 hours; read-out: CC50 in the BRCA1 silenced HeLa cells
Structures can show the parent of a compound that is named as a salt.
outcomeMeasure: CC50

# compound, endpointResult
measured = [
    ("Cc1c(Cc2ccc(F)c(C(=O)N3CCN(c4cc(F)cc(F)c4)C(=O)C3)c2)n[nH]c(=O)c1C [Example 12, trifluoroacetate]", "< 50 nM"),
    ("Cc1c(Cc2ccc(F)c(C(=O)N3CCN(CCOC(C)C)C(=O)C3)c2)n[nH]c(=O)c1C", "< 5000 nM"),
    ("Cc1c(Cc2ccc(F)c(C(=O)N3CCN(C4CCCc5ccccc54)C(=O)C3)c2)n[nH]c(=O)c1C (stereo not shown) [Example 99, trifluoroacetate]", "< 50 nM"),
    ("CC[C@H](C)N1CCN(C(=O)c2cc(Cc3n[nH]c(=O)c(C)c3C)ccc2F)CC1=O", "< 50 nM"),
    ("C[C@H]1CCC[C@H]2CN(C(=O)c3cc(Cc4cc(C(F)(F)F)c(=O)[nH]n4)ccc3F)CC(=O)N21 (single isomer, unassigned)", "< 50 nM"),
    ("Cc1c(Cc2ccc(F)c(C(=O)N3CC(=O)N(c4ccccc4)C(C)C3)c2)n[nH]c(=O)c1C (racemic) [Example 78 (LL4), trifluoroacetate]", "< 50 nM"),
    ("Cc1c(Cc2ccc(F)c(C(=O)N3CC(=O)N(C4CCOC4)C(C)C3)c2)n[nH]c(=O)c1C (stereo not shown) [Example 130, trifluoroacetate]", "50 to 500 nM"),
    ("Cc1c(Cc2ccc(F)c(C(=O)N3CCN(C4(C)CCCCC4)C(=O)C3)c2)n[nH]c(=O)c1C [Example 110, trifluoroacetate]", "< 5000 nM"),
    ("Cc1c(Cc2ccc(F)c(C(=O)N3CCN(c4ccc(C#N)cc4)C(=O)C3)c2)n[nH]c(=O)c1C [Example 94, trifluoroacetate]", "50 to 500 nM"),
    ("Cc1c(Cc2ccc(F)c(C(=O)N3CCN(CCc4cccc(F)c4)C(=O)C3)c2)n[nH]c(=O)c1C [Example 59, trifluoroacetate]", "50 to 500 nM"),
    ("Cc1c(Cc2ccc(F)c(C(=O)N3CC(=O)N(c4cccc(Cl)c4F)[C@H](C)C3)c2)n[nH]c(=O)c1C", "< 50 nM"),
    ("O=C(c1cc(Cc2cc(C(F)(F)F)c(=O)[nH]n2)ccc1F)N1CC(=O)N2CCCC[C@@H]2C1 (single isomer, unassigned) [92 (ZZ2)]", "50 to 500 nM"),
    ("Cc1c(Cc2ccc(F)c(C(=O)N3CCN(C4COc5ccccc5C4)C(=O)C3)c2)n[nH]c(=O)c1C (stereo not shown) [Example 98, trifluoroacetate]", "< 50 nM"),
    ("Cc1c(Cc2ccc(F)c(C(=O)N3CCN(c4cncnc4)C(=O)C3)c2)n[nH]c(=O)c1C [Example 64, trifluoroacetate]", "< 5000 nM"),
    ("C[C@@H]1CCC[C@@H]2CN(C(=O)c3cc(Cc4cc(C(F)(F)F)c(=O)[nH]n4)ccc3F)CC(=O)N21 (single isomer, unassigned)", "50 to 500 nM"),
    ("Cc1c(Cc2ccc(F)c(C(=O)N3CCN(C(c4ccc(F)cc4)C(F)F)C(=O)C3)c2)n[nH]c(=O)c1C (stereo not shown) [Example 118, trifluoroacetate]", "50 to 500 nM"),
    ("Cc1c(Cc2ccc(F)c(C(=O)N3CCN(CC4CCCc5ccccc54)C(=O)C3)c2)n[nH]c(=O)c1C (stereo not shown) [Example 53, trifluoroacetate]", "50 to 500 nM"),
    ("Cc1c(Cc2ccc(F)c(C(=O)N3CC(=O)N(c4cc(F)cc(C#N)c4)[C@H](C)C3)c2)n[nH]c(=O)c1C", "< 50 nM"),
    ("Cc1c(Cc2ccc(F)c(C(=O)N3CCN(c4ccc(F)cc4Cl)C(=O)C3)c2)n[nH]c(=O)c1C [Example 16, trifluoroacetate]", "50 to 500 nM"),
]

The measurements presented in this section are drawn from patent US8268827B2.
